Sourced from patent US4469701A

# System: mice
# PROTOCOL: Acute toxicity / autonomic effects observation
# ASSAY CONDITIONS: mouse, in vivo
METRIC NAME: Acute toxicity / toxic effects

> print(dat)
                                smiles.data  target.system  measurement
1  CC1(C)CCCC(C)(C)N1CC1=CC(=O)N(c2cccc(Cl)c2)C1           mice      absence
2  CC1(C)CCCC(C)(C)N1CC1=CC(=O)N(c2cccc(C#N)c2)C1           mice      absence

====

Listing: ED100 of selected compounds
# System: mice
# PROTOCOL: Antiarrhythmic: chloroform-induced cardiac arrhythmia in mice
# Format: in vivo, mouse
# ASSAY CONDITIONS: Mus musculus, ip, mice; reference compounds; read-out: ED-100, antiarrhythmic

Some entries whose results are on file:
> print(dat)
                                   compound  target.system  measurement
1  COc1ccc([C@@H]2Sc3ccccc3N(CCN(C)C)C(=O)[C@@H]2OC(C)=O)cc1 [diltiazem, reference compound]           mice     50 mg/kg
2  CC(C)N(CCC(C(N)=O)(c1ccccc1)c1ccccn1)C(C)C (stereo not shown) [disopyramide, reference compound]           mice     50 mg/kg
3  Cc1cccc(C)c1OCC(C)N (stereo not shown) [mexilitine, reference compound]           mice     50 mg/kg

# value of ED100, mice, item COC(=O)C1=C(C)NC(C)=C(C(=O)OC)C1c1ccccc1[N+](=O)[O-] [nifedipine, reference compound] = 25 mg/kg

====

# Test system: rats
# PROTOCOL: Antiedema: carrageenan paw edema in rats
# Assay type: in vivo
# ASSAY CONDITIONS: Rattus norvegicus, po, 3 h, read-out: ED-100, antiedema
METRIC NAME: ED100 (mg/kg)
Output spec: scalar in mg/kg, unitless text.

> print(dat)
                                   molecule  measurement
1           CC(=O)Oc1ccccc1C(=O)O [aspirin]          150
2  CC(C(=O)O)c1cccc(C(=O)c2ccccc2)c1 (stereo not shown) [ketoprofen]            5
3  COc1ccc2c(c1)c(CC(=O)O)c(C)n2C(=O)c1ccc(Cl)cc1 [indomethacin]            4

ED100 for C[C@]12CCC(=O)C=C1CC[C@@H]1[C@@H]2[C@@H](O)C[C@@]2(C)[C@H]1CC[C@]2(O)C(=O)CO [hydrocortisone] is 25

====

# System: hypercholesterolemic mice
# PROTOCOL: Hypocholesterolemic: serum cholesterol in hypercholesterolemic mice
# Type: in vivo, mouse
# ASSAY CONDITIONS: Mus musculus; hypercholesterolemic mice, 2 oral doses of 200 mg/kg 20 hr. apart; significance >20; read-out: C = Hypocholesterolemic: percent decrease in serum cholesterol
# Experimental: Mice made hypercholesterolemic by being fed a high cholesterol-cholic acid diet for 7 days were dosed on the sixth and seventh days, p.o. After fasting overnight, reduction in serum cholesterol concentration by more than 15% (>15) from hypercholesterolemic control mice indicates activity. ^4 C = Hypocholesterolemic. Percent decrease in serum cholesterol in hypercholesterolemic mice given 2 oral doses of 200 mg/kg drug candidate
METRIC NAME: inhibition in vivo at 200 mg/kg (%)
The reply should contain only the number, in %.

> print(dat)
                                   molecule              target.system                      metric.name  measurement
1  COc1ccc(N2CC(CN3C(C)(C)CCCC3(C)C)=CC2=O)cc1OC [Compound 12]  hypercholesterolemic mice  inhibition in vivo at 200 mg/kg            3
2  CC1(C)CCCC(C)(C)N1CC1=CC(=O)N(c2ccc(C(F)(F)F)cc2)C1 [Compound 7]  hypercholesterolemic mice  inhibition in vivo at 200 mg/kg            0
3  CC1(C)CCCC(C)(C)N1CC1=CC(=O)N(c2cc(C(F)(F)F)ccc2Cl)C1 [Compound 10]  hypercholesterolemic mice  inhibition in vivo at 200 mg/kg           46
4  CC1(C)CCCC(C)(C)N1CC1=CC(=O)N(c2ccccc2Cl)C1 [Compound 9]  hypercholesterolemic mice  inhibition in vivo at 200 mg/kg            0
5  CC1(C)CCCC(C)(C)N1CC1=CC(=O)N(c2cccc(C#N)c2)C1 [Compound 15]  hypercholesterolemic mice  inhibition in vivo at 200 mg/kg           15
6  CC1(C)CCCC(C)(C)N1CC1=CC(=O)N(c2cccc([N+](=O)[O-])c2)C1 [Compound 11]  hypercholesterolemic mice  inhibition in vivo at 200 mg/kg            0
7  CSc1ccc(N2CC(CN3C(C)(C)CCCC3(C)C)=CC2=O)cc1 [Compound 8]  hypercholesterolemic mice  inhibition in vivo at 200 mg/kg            0

Moving on to another molecule below.
Recorded inhibition in vivo at 200 mg/kg for CC1(C)CCCC(C)(C)N1CC1=CC(=O)N(c2cc(C(F)(F)F)cc(C(F)(F)F)c2)C1 [Compound 3] on hypercholesterolemic mice was 0

====

# Tested on: rats
# PROTOCOL: Bradycardia: heart rate by EKG in rats
# Assay type: in vivo, rat
# ASSAY CONDITIONS: Rattus norvegicus, po, rats; reference compounds; read-out: ED-100, bradycardia
METRIC NAME: log10 of ED100 (log10 of the value in mg/kg)
// units: mg/kg (pre-log); metric: ED100; scale: log10

Look over these answered cases.
COMPOUND	METRIC NAME	MEASUREMENT
N=C(N)NN=Cc1c(Cl)cccc1Cl [quanabenz, reference compound]	log10 of ED100	0.40
COc1ccc([C@@H]2Sc3ccccc3N(CCN(C)C)C(=O)[C@@H]2OC(C)=O)cc1 [diltiazem, reference compound]	log10 of ED100	1.00
COC(=O)[C@H]1[C@H]2C[C@@H]3c4[nH]c5cc(OC)ccc5c4CCN3C[C@H]2C[C@@H](OC(=O)c2cc(OC)c(OC)c(OC)c2)[C@@H]1OC [reserpine, reference compound]	log10 of ED100	0.70
CC(C)NCC(O)COc1cccc2ccccc12 (centres unmarked) [propranolol, reference compound]	log10 of ED100	1.60

Continue with the next compound.
Notebook: Clc1cccc(Cl)c1N=C1NCCN1 [clonidine, reference compound] , log10 of ED100 read as -0.30

====

# PROTOCOL: Anticholinergic properties (overall statement)
# ASSAY CONDITIONS: in vivo
METRIC NAME: Anticholinergic properties/effects

> print(dat)
                                   molecule  measurement
1  CC1(C)CCCC(C)(C)N1CC1=CC(=O)N(c2cccc(C#N)c2)C1 [Compound 15]      absence
2  CC1(C)CCCC(C)(C)N1CC1=CC(=O)N(c2cccc(Cl)c2)C1 [Compound 13]      absence

====

# Tested on: glucose-loaded mice
# PROTOCOL: Hypoglycemic, glucose-loaded mice
# Format: in vivo, mouse
# ASSAY CONDITIONS: glucose loaded mice, 100 mg/kg oral dose; significance >20
# Procedure: Reduction in blood glucose concentration by more than 20% (>20) in fasted, glucose-loaded (1 gm/kg) mice one hour after dosing, p.o., indicates activity (test compound administered at same time as glucose load). ^5 H = Hypoglycemic. Percent decrease in serum glucose concentration in glucose loaded mice hr. following a 100 mg/kg oral dose.
# maps each entry to its H = Hypoglycemic: percent decrease in serum glucose concentration
Expressed in %, but write only the number.

// worked examples, H = Hypoglycemic: percent decrease in serum glucose concentration included
> print(dat)
                                smiles.data  measurement
1  CC1(C)CCCC(C)(C)N1CC1=CC(=O)N(c2ccccc2Cl)C1           27
2  CC1(C)CCCC(C)(C)N1CC1=CC(=O)N(c2ccccc2)C1           29
3  CC1(C)CCCC(C)(C)N1CC1=CC(=O)N(c2cccc(C(F)(F)F)c2)C1           14

Next compound, H = Hypoglycemic: percent decrease in serum glucose concentration to be filled in.
Note to self: H = Hypoglycemic: percent decrease in serum glucose concentration recorded for `CC1(C)CCCC(C)(C)N1CC1=CC(=O)N(c2ccc(C(F)(F)F)cc2)C1` was 22

====

# Test system: rats
# PROTOCOL: Antiedema: carrageenan paw edema in rats
# Assay type: in vivo
# ASSAY CONDITIONS: Rattus norvegicus, po, 3 h; p.o., rats; reference compounds; read-out: ED-100, antiedema
METRIC NAME: ED100 (mg/kg)
Report only the number, with the unit mg/kg understood.

Please review the following examples before continuing.
> print(dat)
                                molecule  target.system  unit.of.measurement  measurement
1  CCCCC1C(=O)N(c2ccccc2)N(c2ccccc2)C1=O           rats                mg/kg           50
2         O=C(O)c1cc(-c2ccc(F)cc2F)ccc1O           rats                mg/kg           25

Record summary for `COc1ccc2cc([C@H](C)C(=O)O)ccc2c1` : reported ED100 = 5

// field: ED100; key: CC(C)Cc1ccc(C(C)C(=O)O)cc1 (stereo not shown) ; value = 25
